What self-cleavage was measured for each of the following?
B1: CPEB3 Ribozyme (parent)
chain: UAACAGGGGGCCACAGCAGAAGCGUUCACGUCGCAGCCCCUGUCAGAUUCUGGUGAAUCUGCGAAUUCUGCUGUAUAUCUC

variants of: B1; assay: self-cleavage, relative activity (ratio to wild type); higher = more cleavage; in vitro, sequencing
Numbers only.

In: Supply self-cleavage value. Item: C32A U72G
Out: 0.19

In: Supply self-cleavage value. Item: A47C
Out: 0.4

Working through the 4 variants below one at a time, give self-cleavage for each.
1. C4U U25A
2. A3G U25G
3. G8A U69C
4. A20C U58C

Out:
1: 0.31; 2: 0.45; 3: 0.19; 4: 0.43

Working through the 7 variants below one at a time, give self-cleavage for each.
1. G8A A56U
2. C40U A47G
3. C4U
4. U41C A75G
5. G6C A57G
6. C39A U80A
7. U54A U80C

Out:
0.38
0.5
1.17
1.09
0.5
0.3
1.14

Working through the 6 variants below one at a time, give self-cleavage for each.
1. U41G A56G
2. G42C U72C
3. U41G U69A
4. U60A G70A
5. U66C C71A
6. A28G C59A

Out:
1: 0.22; 2: 0.21; 3: 0.36; 4: 0.52; 5: 0.25; 6: 0.2
